Property: Kd; scope: individual binders
- test-target: T1, his-tagged-DLL3 antigen (purified human/cynomolgus/dog/mouse/rat or minipig DLL3 antigen) (human/cynomolgus/dog/mouse/rat or …)
- T1 construct: Antigen loaded on nickel-NTA tips for biolayer interferometry; also called Delta-like protein 3
- T1 sequence (Q9NYJ7 whole entry): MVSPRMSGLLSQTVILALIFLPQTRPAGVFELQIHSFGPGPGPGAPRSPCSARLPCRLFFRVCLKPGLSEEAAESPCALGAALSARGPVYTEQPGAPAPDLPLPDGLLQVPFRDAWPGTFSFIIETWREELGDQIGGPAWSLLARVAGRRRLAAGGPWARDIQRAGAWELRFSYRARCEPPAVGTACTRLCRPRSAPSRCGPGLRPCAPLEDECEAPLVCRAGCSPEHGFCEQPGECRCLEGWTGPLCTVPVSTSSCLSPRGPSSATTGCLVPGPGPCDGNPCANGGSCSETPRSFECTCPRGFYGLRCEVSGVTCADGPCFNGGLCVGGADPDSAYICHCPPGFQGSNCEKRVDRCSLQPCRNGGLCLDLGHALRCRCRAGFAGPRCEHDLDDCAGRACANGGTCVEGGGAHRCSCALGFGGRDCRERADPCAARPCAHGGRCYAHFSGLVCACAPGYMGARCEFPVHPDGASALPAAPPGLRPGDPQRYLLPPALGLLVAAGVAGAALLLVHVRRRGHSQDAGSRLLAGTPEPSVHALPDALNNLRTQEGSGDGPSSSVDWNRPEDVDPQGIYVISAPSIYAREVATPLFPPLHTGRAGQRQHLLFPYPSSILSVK
- experimental-protocol: biolayer interferometry (Octet BLItz), his-tagged DLL3 on nickel-NTA tip, minibody in solution
- Method: As disclosed herein, the binding kinetics of the novel antigen binding constructs to a purified human/cynomolgus/dog/mouse/rat or minipig DLL3 antigen was assessed using biolayer interferometry (TABLE 9) (FIG. 9). […] The on-rate (Kon) and off-rate (Koff), and the dissociation constant KD, where recorded on Octet BLItz instrument. […] Off-rate curves were recorded by immersion of the tip in PBS.
Response body: numeric value in nM, unit text excluded.

These solved cases illustrate the format of a correct answer.
{"columns": ["binder", "Kd [nM]"],
 "data": [
  ["IAB57M1-3 (other, Signal peptide left out) EIVMTQSPATLSVSPGERATLSCKASQSVSNDVVWYQQKPGQAPRLLIYDASNRYTGIPARFSGSGSGTEFTLTISSLQSEDFAVYYCQQDYTSPWTFGQGTKLEIKGSTSGGGSGGGSGGGGSSQVQLVQSGAEVKKPGASVKVSCKASGYTFTNYGMNWVRQAPGQGLEWMGWINTYTGEPTYADDFKGRVTMTTDTSTSTAYMELRSLRSDDTAVYYCARIGDSSPSDYWGQGTLVTVSSEPKSSDKTHTCPPCPPCGGGSSGGGSGGQPREPQVYTLPPSREEMTKNQVSLTCLVKGFYPSDIAVEWESNGQPENNYKTTPPVLDSDGSFFLYSKLTVDKSRWQQGNVFSCSVMHEALHNHYTQKSLSLSPG", 4],
  ["IAB57M2-4 (other, Signal peptide left out) QVQLVQSGAEVKKPGASVKVSCKASGYTFTNYGMNWVRQAPGQGLEWMGWINTYTGEPTYADDFKGRVTMTTDTSTSTAYMELRSLRSDDTAVYYCARIGDSSPSDYWGQGTLVTVSSGSTSGGGSGGGSGGGGSSEIVMTQSPATLSVSPGERATLSCKASQSVSNDVVWYQQKPGQAPRLLIYDASNRYTGIPARFSGSGSGTEFTLTISSLQSEDFAVYYCQQDYTSPWTFGQGTKLEIKEPKSSDKTHTCPPCPPCGGGSSGGGSGGQPREPQVYTLPPSREEMTKNQVSLTCLVKGFYPSDIAVEWESNGQPENNYKTTPPVLDSDGSFFLYSKLTVDKSRWQQGNVFSCSVMHEALHNHYTQKSLSLSPG", 4.84],
  ["IAB57M2-2 (other, Parental minibody; Signal peptide left out; also called parental minibody IAB57M2-2) QVQLVQSGAEVKKPGASVKVSCKASGYTFTNYGMNWVRQAPGQGLEWMGWINTYTGEPTYADDFKGRVTMTTDTSTSTAYMELRSLRSDDTAVYYCARIGDSSPSDYWGQGTLVTVSSGSTSGGGSGGGSGGGGSSEIVMTQSPATLSVSPGERATLSCKASQSVSNDVVWYQQKPGQAPRLLIYYASNRYTGIPARFSGSGSGTEFTLTISSLQSEDFAVYYCQQDYTSPWTFGQGTKLEIKEPKSSDKTHTCPPCPPCGGGSSGGGSGGQPREPQVYTLPPSREEMTKNQVSLTCLVKGFYPSDIAVEWESNGQPENNYKTTPPVLDSDGSFFLYSKLTVDKSRWQQGNVFSCSVMHEALHNHYTQKSLSLSPG", 3.07]
]}

// switching to the query binder
Enquiry: Data request, read-out Kd, for IAB57M1-1 (other, Parental minibody; also called parental minibody IAB57M1-1) EIVMTQSPATLSVSPGERATLSCKASQSVSNDVVWYQQKPGQAPRLLIYYASNRYTGIPARFSGSGSGTEFTLTISSLQSEDFAVYYCQQDYTSPWTFGQGTKLEIKGSTSGGGSGGGSGGGGSSQVQLVQSGAEVKKPGASVKVSCKASGYTFTNYGMNWVRQAPGQGLEWMGWINTYTGEPTYADDFKGRVTMTTDTSTSTAYMELRSLRSDDTAVYYCARIGDSSPSDYWGQGTLVTVSSEPKSSDKTHTCPPCPPCGGGSSGGGSGGQPREPQVYTLPPSREEMTKNQVSLTCLVKGFYPSDIAVEWESNGQPENNYKTTPPVLDSDGSFFLYSKLTVDKSRWQQGNVFSCSVMHEALHNHYTQKSLSLSPG
Return: 3.33
